# test_target: T-type calcium channel (Homo sapiens)
# protocol: T-type channel blocking, FLIPR data (Table 6)
# Type: cell-based
# condition: CAv3.2, inactivated state, read-out: CAv3.2 IC50 Inact.
measured_property: log10 IC50 (log10 of the value in µM)

>>> readout_number("CC(C)([C@H]1C[C@H](NC(=O)c2ccc(F)c(Cl)c2)C1)S(=O)(=O)c1cccc(OC(F)(F)F)c1")
-0.09
>>> readout_number("CC(C)([C@H]1C[C@H](C(=O)Nc2cc(C(F)(F)F)n[nH]2)C1)S(=O)(=O)c1cccc(C(F)(F)F)c1")
0.26
>>> readout_number("CC(C)S(=O)(=O)c1cc(C(F)(F)F)cnc1C(=O)N[C@H]1C[C@H](CC(C)(C)S(=O)(=O)c2cccc(C(F)(F)F)c2)C1")
0.84
>>> readout_number("O=C(NC[C@H]1C[C@H](S(=O)(=O)c2cccc(Cl)c2)C1)c1ccc(C(F)(F)F)cc1")
0.48
>>> readout_number("CC(C)([C@H]1C[C@H](NS(=O)(=O)c2ccc(F)c(C(F)(F)F)c2)C1)S(=O)(=O)c1cc(F)cc(C(F)(F)F)c1")
0.41
>>> readout_number("CNC1(CC(=O)NCc2ccc(S(=O)(=O)c3cccc(C(F)(F)F)c3)cc2)CCCCC1")
1.00
>>> readout_number("Cc1nc(C(F)(F)F)ccc1NC(=O)[C@H]1C[C@H](C(C)(C)S(=O)(=O)c2cccc(C(F)(F)F)c2)C1")
0.55
>>> readout_number("CNC1(CC(=O)N[C@H]2C[C@@H](C(C)(C)S(=O)(=O)c3cccc(OC(F)(F)F)c3)C2)CCCCC1")
1.00
>>> readout_number("CC(C)([C@H]1C[C@H](NC(=O)c2cc(C(F)(F)F)n[nH]2)C1)S(=O)(=O)c1cc(F)cc(C(F)(F)F)c1")
0.37
>>> readout_number("CC(C)([C@H]1C[C@@H](NC(=O)c2ccc(OCC(F)(F)F)nc2)C1)S(=O)(=O)c1cccc(C(F)(F)F)c1")
0.12
>>> readout_number("CC(C)([C@H]1C[C@@H](CNc2ccc(Cl)c(F)c2)C1)S(=O)(=O)c1cccc(C(F)(F)F)c1")
1.00
>>> readout_number("O=C(NC[C@H]1C[C@H](S(=O)(=O)c2cccc(C(F)(F)F)c2)C1)c1ccc(C(F)(F)F)cc1")
0.23
>>> readout_number("CC(C)(C[C@H]1C[C@@H](NC(=O)c2ncc(C(F)(F)F)cc2S(C)(=O)=O)C1)S(=O)(=O)c1cccc(C(F)(F)F)c1")
1.00
>>> readout_number("CC(C)([C@H]1C[C@H](NC(=O)c2cncc(C(F)(F)F)c2)C1)S(=O)(=O)c1cccc(C(F)(F)F)c1")
0.80

----------
# test_target: T-type calcium channel (Homo sapiens)
# protocol: T-type channel blocking, FLIPR data (Table 6)
# condition: CAv3.1
Quick reference: IC50 of the listed items.
measured_property: IC50

>>> result("CC(C)([C@H]1C[C@@H](CNc2cc(C(F)(F)F)n[nH]2)C1)S(=O)(=O)c1cccc(C(F)(F)F)c1")
"5.25 µM"
>>> result("CC(C)([C@H]1C[C@H](NC(=O)c2ccc(C(F)(F)F)cn2)C1)S(=O)(=O)c1cccc(C(F)(F)F)c1")
"3.87 µM"
>>> result("CC(C)([C@H]1C[C@@H](NC(=O)c2cc(C(F)(F)F)n[nH]2)C1)S(=O)(=O)c1cccc(OC(F)(F)F)c1")
"2.28 µM"
>>> result("CC(C)([C@H]1C[C@@H](NC(=O)c2cnc(C(F)(F)F)nc2)C1)S(=O)(=O)c1cccc(C(F)(F)F)c1")
"≥ 10 µM"
